TARGET OR TEST SYSTEM: hLRRC33-proTGFβ1 in the cell-based potency assay (human, UniProt P01137 30-390; Q86YC3 19-651)
Sequence (P01137 30-390 limits assumed, chain 1 of 2): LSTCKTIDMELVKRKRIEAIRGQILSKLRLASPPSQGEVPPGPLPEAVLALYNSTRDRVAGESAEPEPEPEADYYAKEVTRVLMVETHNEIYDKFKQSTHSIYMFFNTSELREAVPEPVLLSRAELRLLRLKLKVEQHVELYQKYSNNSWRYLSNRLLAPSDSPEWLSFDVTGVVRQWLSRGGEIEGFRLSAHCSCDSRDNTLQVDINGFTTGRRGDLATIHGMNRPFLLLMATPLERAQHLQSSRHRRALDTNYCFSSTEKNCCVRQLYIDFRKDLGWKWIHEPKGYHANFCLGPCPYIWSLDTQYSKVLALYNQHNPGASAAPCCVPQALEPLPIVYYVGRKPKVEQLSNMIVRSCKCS
Sequence (Q86YC3 other isoform, or with tags, fused parts or gaps limits assumed, chain 2 of 2): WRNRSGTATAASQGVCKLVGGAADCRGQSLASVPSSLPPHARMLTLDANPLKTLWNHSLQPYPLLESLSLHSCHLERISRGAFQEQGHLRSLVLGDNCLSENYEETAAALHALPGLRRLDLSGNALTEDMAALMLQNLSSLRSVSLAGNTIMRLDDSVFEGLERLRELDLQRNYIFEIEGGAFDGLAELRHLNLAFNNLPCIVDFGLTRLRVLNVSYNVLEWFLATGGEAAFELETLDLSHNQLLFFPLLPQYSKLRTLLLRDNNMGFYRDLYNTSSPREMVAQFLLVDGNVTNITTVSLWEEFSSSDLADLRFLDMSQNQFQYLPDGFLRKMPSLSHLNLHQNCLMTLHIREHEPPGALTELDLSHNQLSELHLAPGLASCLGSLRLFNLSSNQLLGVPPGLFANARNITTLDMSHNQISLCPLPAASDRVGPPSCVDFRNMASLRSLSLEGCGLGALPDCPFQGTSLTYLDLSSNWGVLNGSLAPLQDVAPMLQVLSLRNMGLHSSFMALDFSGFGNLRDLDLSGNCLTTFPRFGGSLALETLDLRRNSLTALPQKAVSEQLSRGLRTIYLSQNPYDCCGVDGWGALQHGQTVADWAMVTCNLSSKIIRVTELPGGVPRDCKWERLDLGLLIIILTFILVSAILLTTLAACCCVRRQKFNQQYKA
ASSAY: cell-based or functional assay
QUANTITY KIND: IC50, reporter cell assay of TGFβ1 activation (nM)
API: value field is a number in nM; no unit string.

Returns the measured IC50, reporter cell assay of TGFβ1 activation for the input binder. Input: Ab29 (antibody, V domains shown) VH: EVQLVESGGGLVQPGRSLRLSCAASGFTFSSFAMNWVRQAPGKGLEWVSYISPDASTIYYAGSVKGRFTISRDNAKNSLYLQMNSLRAEDTAVYYCVRAVLDYGDMLDPWGQGTLVTVSS VL: DIQMTQSPSSLSASVGDRVTITCQASQDITNYLNWYQQKPGKAPKLLIYDASNLETGVPSRFSGSGSGTDFTFTISSLQPEDIATYYCQQADNHPPWTFGGGTKVEIK 0.5

The measured values listed here are drawn from patent US20230050148A1.
